target: Pax6 DNA-binding domain (BD-Pax6) (Mus musculus (B6), UniProt P63015 190-289); assay: EMSA; 10% glycerol, 20 mM HEPES pH 7.8, 45 mM KCl, 10 mM NaCl, 1 mM EDTA, 1 mM DTT, 0.2 ug/uL BSA, 0.1% NP-40, 50 ng poly-dIdC; 20 ng each GST protein; room temperature 30 min (heterodimers 4 C); 6% PAGE 0.25x TBE; settings: protein: recombinant; tags: GST (N-terminal, pGEX-6P-1); label: 32P-dCTP fill-in of the 5' (dG)5 overhangs of both strands (Methods; control probes are given with GGG)
Sequence (P63015 190-289): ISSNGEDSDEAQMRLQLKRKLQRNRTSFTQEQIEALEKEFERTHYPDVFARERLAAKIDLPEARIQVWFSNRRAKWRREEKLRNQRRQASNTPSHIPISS
measure.name: binding result

binder="83 (dsDNA) DNA 1: GGGGGGTCCAAGTTTTGTGACCCTTTAATACAGTTAGATCCCCCC DNA 2: GGGGGGATCTAACTGTATTAAAGGGTCACAAAACTTGGACCCCCC" measure_name="binding result" measured_result=binds
binder="48 (dsDNA) DNA 1: GGGGGATGAAATGGCTAAATCCTTTTTTTGTTGTTTGTTCCCCC DNA 2: GGGGGAACAAACAACAAAAAAAGGATTTAGCCATTTCATCCCCC" measure_name="binding result" measured_result=binds
binder="90 (dsDNA) DNA 1: GGGGGTGCTGTTTTTTGTTACTGTCACTAATTACATTTTAAATTATCCCCC DNA 2: GGGGGATAATTTAAAATGTAATTAGTGACAGTAACAAAAAACAGCACCCCC" measure_name="binding result" measured_result=binds
